B1: Tyrosine-protein kinase BTK, residues 215 to 273; numbered along this chain, Q06187 (parent)
chain: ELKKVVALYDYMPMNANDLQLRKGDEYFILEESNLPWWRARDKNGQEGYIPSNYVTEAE

Variants of: B1
TEST METHOD NOTES: abundance fitness (aPCA) (normalised: wild type 0, dead -1); higher = more abundant; growth selection in yeast, the domain comes from the species named
RUN PARAMETERS: Homo sapiens
Use abundance fitness to assign classes; range list: b0 = under -0.1, b1 = from -0.1 up to -0.04, b2 = -0.04 and over

Band for the recorded abundance fitness of `N17R` ?
b2

Band for the recorded abundance fitness of `N53F` ?
b0

Band for the recorded abundance fitness of `E47A` ?
b1

Band for the recorded abundance fitness of `N53E` ?
b2

Band for the recorded abundance fitness of `Y27E` ?
b0

Band for the recorded abundance fitness of `P36Q` ?
b2

Band for the recorded abundance fitness of `R39S` ?
b1

Band for the recorded abundance fitness of `T56W` ?
b1

Band for the recorded abundance fitness of `G24N` ?
b1

Band for the recorded abundance fitness of `N53Y` ?
b0

Band for the recorded abundance fitness of `S33E` ?
b2

Band for the recorded abundance fitness of `S33R` ?
b1

Band for the recorded abundance fitness of `E32Q` ?
b2

Band for the recorded abundance fitness of `T56F` ?
b0

Band for the recorded abundance fitness of `N17L` ?
b2

Band for the recorded abundance fitness of `D25S` ?
b1

Band for the recorded abundance fitness of `E26K` ?
b2

Band for the recorded abundance fitness of `E26Y` ?
b1

Band for the recorded abundance fitness of `E31Q` ?
b2

Band for the recorded abundance fitness of `T56P` ?
b0

Band for the recorded abundance fitness of `R41I` ?
b0

Band for the recorded abundance fitness of `N53D` ?
b1

Band for the recorded abundance fitness of `F28P` ?
b0

Band for the recorded abundance fitness of `G45W` ?
b0

Band for the recorded abundance fitness of `R39F` ?
b1

Band for the recorded abundance fitness of `L21Y` ?
b0

Band for the recorded abundance fitness of `G45Y` ?
b1

Band for the recorded abundance fitness of `W37T` ?
b2

Band for the recorded abundance fitness of `Y27S` ?
b0

Band for the recorded abundance fitness of `D18I` ?
b2

Band for the recorded abundance fitness of `F28C` ?
b1

Band for the recorded abundance fitness of `D42C` ?
b0

Band for the recorded abundance fitness of `W38A` ?
b2

Band for the recorded abundance fitness of `E59H` ?
b1

Band for the recorded abundance fitness of `R39K` ?
b1

Band for the recorded abundance fitness of `W37M` ?
b2

Band for the recorded abundance fitness of `P51S` ?
b0

Band for the recorded abundance fitness of `T56V` ?
b2

Band for the recorded abundance fitness of `E59L` ?
b1

Band for the recorded abundance fitness of `P36V` ?
b1

Band for the recorded abundance fitness of `G48Y` ?
b0

Band for the recorded abundance fitness of `Y27N` ?
b0

Band for the recorded abundance fitness of `D25A` ?
b1

Band for the recorded abundance fitness of `D18L` ?
b1

Band for the recorded abundance fitness of `W38P` ?
b2

Band for the recorded abundance fitness of `K43R` ?
b2

Band for the recorded abundance fitness of `N53V` ?
b2

Band for the recorded abundance fitness of `I29S` ?
b0

Band for the recorded abundance fitness of `E47Y` ?
b0

Band for the recorded abundance fitness of `V55T` ?
b0

Band for the recorded abundance fitness of `E31R` ?
b2

Band for the recorded abundance fitness of `L21G` ?
b0

Band for the recorded abundance fitness of `S33G` ?
b2

Band for the recorded abundance fitness of `L19S` ?
b0

Band for the recorded abundance fitness of `Y49W` ?
b2

Band for the recorded abundance fitness of `K43V` ?
b2

Band for the recorded abundance fitness of `Y54T` ?
b0

Band for the recorded abundance fitness of `D18S` ?
b1

Band for the recorded abundance fitness of `P36L` ?
b1

Band for the recorded abundance fitness of `N53S` ?
b2

Band for the recorded abundance fitness of `E57A` ?
b2

Band for the recorded abundance fitness of `R41C` ?
b2

Band for the recorded abundance fitness of `L19M` ?
b0

Band for the recorded abundance fitness of `E47V` ?
b1

Band for the recorded abundance fitness of `S33P` ?
b2

Band for the recorded abundance fitness of `L21E` ?
b0

Band for the recorded abundance fitness of `S33Y` ?
b1
